target: thromboxane synthetase from lysed human platelets (Homo sapiens, UniProt P24557)
Sequence (P24557 whole entry): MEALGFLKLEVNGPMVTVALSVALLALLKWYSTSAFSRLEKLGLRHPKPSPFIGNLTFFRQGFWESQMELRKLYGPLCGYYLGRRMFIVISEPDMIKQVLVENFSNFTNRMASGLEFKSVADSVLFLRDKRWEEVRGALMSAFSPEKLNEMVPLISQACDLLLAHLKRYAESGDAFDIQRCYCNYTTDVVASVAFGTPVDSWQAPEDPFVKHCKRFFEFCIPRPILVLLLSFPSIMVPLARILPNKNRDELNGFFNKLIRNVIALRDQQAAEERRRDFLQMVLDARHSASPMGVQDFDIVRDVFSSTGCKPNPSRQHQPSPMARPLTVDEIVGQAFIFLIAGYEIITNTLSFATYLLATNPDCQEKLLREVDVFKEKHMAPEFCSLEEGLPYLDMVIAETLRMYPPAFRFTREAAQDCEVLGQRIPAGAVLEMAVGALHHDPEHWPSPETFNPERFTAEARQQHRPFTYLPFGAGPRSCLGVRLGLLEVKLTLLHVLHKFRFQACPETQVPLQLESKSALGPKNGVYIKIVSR
endpoint_label: pIC50
Field pIC50 (float): negative decimal logarithm of the concentration in molar.

Q: Query pIC50 on thromboxane synthetase from lysed human platelets (Homo sapiens, UniProt P24557) for Cc1c(-n2ccnc2)n(CCCCCC(=O)O)c2ccccc12.Cl [Example 3, hydrochloride]
Result: 8.64
